// inhibition lookup, one value per entry
assay: NOD1 signaling inhibitors, primary screen, cell-based, luminescence, uHTS (AID 1578); conditions: NOD1-driven NF-kB luciferase reporter cells, at 4 µM, active compounds read high;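 also: HEK-293T reporter cells stimulated with the NOD1 agonist gamma-tri-DAP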
Hit rate of the full screen: of about 290,000 compounds, about 3,000 (1%) were called active. This is one part of a sample in which actives are shown more often than they occur.
Quick reminder: number only, in %, skip the unit.

                                   compound  result
0  CCN(CC)c1c([N+](=O)[O-])c(=O)n(CC)c2ccccc12    -5.5
1   O=C(O)c1cccc(NC(=S)N/N=C/c2cccc(O)c2)c1    -6.8
2               CN(C)CCC(=O)c1ccc2c(c1)OCO2    59.1
3  O=C(Cc1cccc2ccccc12)N/N=C/c1ccc(Sc2cccc3cccnc23)o1    61.9
4  COc1ccc(Nc2nc(C)nc3c2nnn3Cc2ccccc2)cc1OC       0

Could you share which inhibition value was measured for `CCc1nc(Nc2ccc(OC)c(OC)c2)c2nnn(Cc3ccccc3Cl)c2n1` ?
58.7

Could you share which inhibition value was measured for `Cc1ccccc1C(=O)N1CCN(C(c2ccccc2)c2ccccc2)CC1` ?
-1.2

Could you share which inhibition value was measured for `O=C(Nc1cccc(F)c1)N1CCC(n2c(=O)[nH]c3ccccc32)CC1` ?
-2.7

Could you share which inhibition value was measured for `Nc1cc(-c2ccccc2)nn1Cc1ccccc1` ?
-25.1

Could you share which inhibition value was measured for `Cc1c(C(=O)N2CCCC2)sc(NC(=O)c2ccccc2)c1C#N` ?
-9.5

Could you share which inhibition value was measured for `O=C(COC(=O)/C=C/C(=O)N1CCN(c2ccccc2)CC1)NC(c1ccccc1)c1ccccc1` ?
76.2

Could you share which inhibition value was measured for `COc1cc(/C=N/Nc2snc(SC)c2C#N)cc(OC)c1OC` ?
68.9

Could you share which inhibition value was measured for COc1ccc(CCNC(=O)C(C)OC(=O)c2ccco2)cc1OC (configuration not stated) ?
-19.4

Could you share which inhibition value was measured for `COC(=O)C1CCN(C(=O)/C(C)=C\c2ccccc2)CC1` ?
-32.2

Could you share which inhibition value was measured for `CCOc1cc(/C=N/NC(=O)CSc2cccc3cccnc23)ccc1O` ?
-32.2

Could you share which inhibition value was measured for Cc1ccsc1C(=O)NNC(=O)C1CC=CCC1C(=O)O (configuration not stated) ?
-25.2

Could you share which inhibition value was measured for `O=C(CSc1cccc2cccnc12)N/N=C/c1cccc(O)c1` ?
-22

Could you share which inhibition value was measured for `Cn1c(=O)c([N+](=O)[O-])c(Cl)c2ccccc21` ?
-31.4

Could you share which inhibition value was measured for `O=C(CSc1cccc2cccnc12)N/N=C/c1cccnc1` ?
80

Could you share which inhibition value was measured for `Nc1cc(-c2cccc(Br)c2)nn1Cc1ccccc1` ?
-9.7

Could you share which inhibition value was measured for `CCOc1ccccc1C(=O)N/N=C/c1ccoc1` ?
-17.7

Could you share which inhibition value was measured for CCCC(C)NC(=O)/C=C/c1cccc([N+](=O)[O-])c1 (configuration not stated) ?
-26.2

Could you share which inhibition value was measured for `COc1cccc(OC)c1Nc1nc(C)nc2c1nnn2Cc1ccccc1Cl` ?
-33.1

Could you share which inhibition value was measured for `CN(C)CCCC(=O)c1ccc2c(c1)OCO2` ?
-10.8

Could you share which inhibition value was measured for `COc1cc(/C=N/Nc2snc(SC)c2C#N)ccc1O` ?
63.7

Could you share which inhibition value was measured for `CCOc1ccc(N/C(=N/c2nc(C)cc(C)n2)NC(C)=O)cc1` ?
-12

Could you share which inhibition value was measured for Cc1ccsc1C(=O)NNC(=O)C1C2C=CC(C2)C1C(=O)O (configuration not stated) ?
72.2

Could you share which inhibition value was measured for `COc1cc(C(=O)NC(=S)N(C)Cc2ccccc2)cc(OC)c1OC` ?
-14.8
